Cited source for all entries: ChEMBL document CHEMBL4765228

TARGET SYSTEM: Mitogen-activated protein kinase 14 (Homo sapiens) (UniProt Q16539)
Sequence (Q16539 whole entry): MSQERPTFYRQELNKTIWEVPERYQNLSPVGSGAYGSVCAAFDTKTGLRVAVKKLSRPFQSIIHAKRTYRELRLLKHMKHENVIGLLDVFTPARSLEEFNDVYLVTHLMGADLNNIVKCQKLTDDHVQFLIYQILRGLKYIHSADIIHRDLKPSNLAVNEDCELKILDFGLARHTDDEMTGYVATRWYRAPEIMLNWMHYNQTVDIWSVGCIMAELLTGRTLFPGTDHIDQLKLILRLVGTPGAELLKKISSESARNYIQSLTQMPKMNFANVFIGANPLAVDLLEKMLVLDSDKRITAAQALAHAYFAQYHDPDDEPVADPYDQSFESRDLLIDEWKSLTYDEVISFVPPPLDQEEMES
ASSAY TEXT: Inhibition of human p38-alpha assessed as residual activity at 0.1 uM relative to control

CHEM SMILES | Activity / %
Cn1cc(/C=C2\C(=O)Nc3ccc(S(N)(=O)=O)cc32)c2ccccc21 | 107
COc1ccc2c(c1)c(/C=C1\C(=O)Nc3ccc(S(N)(=O)=O)cc31)cn2C | 106
COc1ccc2[nH]cc(/C=C3\C(=O)Nc4ccc(S(N)(=O)=O)cc43)c2c1 | 102
COc1ccc2c(c1)c(/C=C1\C(=O)Nc3ccc(S(=O)(=O)N(C)C)cc31)cn2C | 95
CN(C)S(=O)(=O)c1ccc2c(c1)/C(=C/c1cn(C)c3ccc(O)cc13)C(=O)N2 | 97
CNS(=O)(=O)c1ccc2c(c1)/C(=C/c1cn(C)c3ccc(OC)cc13)C(=O)N2 | 102
